Below, each entry is listed alongside its reported IC50.
PROTOCOL_SUMMARY: in vitro
CONDITION_DETAILS: African green monkey
Answer with a number only, understood to be in µM.

C=CCOc1c(C)c2c(c3c1CC1[C@H]4c5c(cc(C)c(OC)c5OCOC)C[C@@H]([C@H](C#N)N1[C@H]3CN)N4C)OCO2 (stereo partly drawn)	1.8

Form: compound = CCCCCC(=O)N[C@@H](C)C(=O)NC[C@H]1c2c(c(OC(C)=O)c(C)c3c2OCO3)CC2[C@H]3c4c(cc(C)c(OC)c4O)C[C@@H]([C@H](C#N)N21)N3C (stereo partly drawn) ; IC50 = 0.001

---

System: Molt 3
CONDITION_DETAILS: human
Below, each entry is listed alongside its reported pIC50.
In plain terms, pIC50 is the concentration in mol/L turned into minus its base-10 logarithm.

COc1c(C)cc2c(c1O)[C@@H]1C3Cc4c(OC(C)=O)c(C)c5c(c4[C@H](COC(=O)/C=C/c4ccccc4)N3[C@@H](O)[C@H](C2)N1C)OCO5 (some centres unmarked) [drawing 238]	8.61

Lab note: next molecule to report on.
Form: molecule = COc1c(C)cc2c(c1O)[C@@H]1C3Cc4c(OC(C)=O)c(C)c5c(c4[C@H](COC(=O)/C=C/c4ccccc4)N3[C@@H](O)[C@H](C2)N1C)OCO5 (some centres unmarked) [drawing 239] ; pIC50 = 10.06

---

Tested on: MEL-28
CONDITION_DETAILS: human
VALUE_KIND: pIC50
In plain terms, pIC50 is the concentration in mol/L turned into minus its base-10 logarithm.

CCCC(=O)OC[C@H]1c2c(c(OC(C)=O)c(C)c3c2OCO3)CC2[C@H]3c4c(cc(C)c(OC)c4OCOC)C[C@@H]([C@H](C#N)N21)N3C (some centres unmarked) [drawing 152]	9.10

CCCC(=O)OC[C@H]1c2c(c(OC(C)=O)c(C)c3c2OCO3)CC2[C@H]3c4c(cc(C)c(OC)c4OCOC)C[C@@H]([C@H](C#N)N21)N3C (some centres unmarked) [drawing 148] on MEL-28 gives pIC50 = 7.00

---

Tested on: MX-1
VALUE_KIND: IC50

COc1c(C)cc2c(c1O)[C@@H]1C3Cc4c(OC(C)=O)c(C)c5c(c4[C@H](COC(=O)/C=C/c4ccccc4)N3[C@@H](O)[C@H](C2)N1C)OCO5 (stereo partly shown) [drawing 234] on MX-1 gives IC50 = 0.725 pM

---

Below, each entry is listed alongside its reported IC50.
Tested on: K562
PROTOCOL_SUMMARY: cells
CONDITION_DETAILS: Homo sapiens, K562, read-out: CYTOTOXIC ACTIVITY (M) K562
Answer with a number only, understood to be in M.

COc1c(C)cc2c(c1O)[C@@H]1C3Cc4c(OC(C)=O)c(C)c5c(c4[C@H](CNC(=O)CCc4ccccc4)N3[C@@H](O)[C@H](C2)N1C)OCO5 (stereo partly shown) [drawing 221]	2.33e-07

Form: molecule = COc1c(C)cc2c(c1O)[C@@H]1C3Cc4c(OC(C)=O)c(C)c5c(c4[C@H](CNC(=O)[C@H](C)NC(=O)Cc4ccccc4)N3[C@@H](O)[C@H](C2)N1C)OCO5 (stereo partly shown) [drawing 223] ; IC50 = 4.45e-08

Form: molecule = CCCCCC(=O)NC[C@H]1c2c(c(OC(C)=O)c(C)c3c2OCO3)CC2[C@H]3c4c(cc(C)c(OC)c4O)C[C@@H]([C@H](O)N21)N3C (stereo partly shown) [drawing 230] ; IC50 = 6.89e-08

Form: molecule = CCC(=O)N[C@@H](C)C(=O)NC[C@H]1c2c(c(OC(C)=O)c(C)c3c2OCO3)CC2[C@H]3c4c(cc(C)c(OC)c4O)C[C@@H]([C@H](O)N21)N3C (stereo partly shown) [drawing 232] ; IC50 = 1.18e-08

---

Tested on: U-937
PROTOCOL_SUMMARY: Cytotoxic activity (M) panel, Lymphoma Histiocytic U-937
CONDITION_DETAILS: Homo sapiens, U-937, read-out: CYTOTOXIC ACTIVITY (M) U-937
Below, each entry is listed alongside its reported IC50.
Answer with a number only, understood to be in M.

Check out these entries, answers already filled in.
CCCC(=O)NC[C@H]1c2c(c(OC(C)=O)c(C)c3c2OCO3)CC2[C@H]3c4c(cc(C)c(OC)c4O)C[C@@H]([C@H](O)N21)N3C (stereo partly drawn) [drawing 229]	1.92e-09
COc1c(C)cc2c(c1O)[C@@H]1C3Cc4c(OC(C)=O)c(C)c5c(c4[C@H](CNC(=O)CCc4ccccc4)N3[C@@H](O)[C@H](C2)N1C)OCO5 (stereo partly drawn) [drawing 221]	3.06e-11

Lab note: next compound to report on.
Form: compound = COc1c(C)cc2c(c1O)[C@@H]1C3Cc4c(OC(C)=O)c(C)c5c(c4[C@H](COC(=O)/C=C/c4cccc(C(F)(F)F)c4)N3[C@@H](O)[C@H](C2)N1C)OCO5 (stereo partly drawn) [drawing 237] ; IC50 = 7.6e-08

---

Tested on: A549
PROTOCOL_SUMMARY: Cytotoxic activity (M) panel, NSCL A549
CONDITION_DETAILS: Homo sapiens, A549, read-out: CYTOTOXIC ACTIVITY (M) A549
Below, each entry is listed alongside its reported log10(IC50).
Values below are the log10 of the recorded IC50, with M as the unit.

Check out these entries, answers already filled in.
COc1c(C)cc2c(c1O)[C@@H]1C3Cc4c(OC(C)=O)c(C)c5c(c4[C@H](CNC(=O)[C@H](C)NC(=O)C(F)(F)F)N3[C@@H](O)[C@H](C2)N1C)OCO5 (stereo partly drawn) [drawing 212]	-5.11
COc1c(C)cc2c(c1O)[C@@H]1C3Cc4c(OC(C)=O)c(C)c5c(c4[C@H](CNC(=O)/C=C/c4cccc(C(F)(F)F)c4)N3[C@@H](O)[C@H](C2)N1C)OCO5 (stereo partly drawn) [drawing 211]	-8.49
COc1c(C)cc2c(c1O)[C@@H]1C3Cc4c(OC(C)=O)c(C)c5c(c4[C@H](COC(=O)CCc4ccccc4)N3[C@@H](O)[C@H](C2)N1C)OCO5 (stereo partly drawn) [drawing 235]	-5.09
COc1c(C)cc2c(c1O)[C@@H]1C3Cc4c(OC(C)=O)c(C)c5c(c4[C@H](COC(=O)/C=C/c4cccc(C(F)(F)F)c4)N3[C@@H](O)[C@H](C2)N1C)OCO5 (stereo partly drawn) [drawing 233]	-5.55
CCCCCC(=O)NC[C@H]1c2c(c(OC(C)=O)c(C)c3c2OCO3)CC2[C@H]3c4c(cc(C)c(OC)c4O)C[C@@H]([C@H](O)N21)N3C (stereo partly drawn) [drawing 226]	-8.03

CCCC(=O)OC[C@H]1c2c(c(OC(C)=O)c(C)c3c2OCO3)CC2[C@H]3c4c(cc(C)c(OC)c4O)C[C@@H]([C@H](O)N21)N3C (stereo partly drawn) [drawing 236] on A549 gives log10(IC50) = -8.07

---

Tested on: MC116
CONDITION_DETAILS: human
Below, each entry is listed alongside its reported pIC50.
In plain terms, pIC50 is the concentration in mol/L turned into minus its base-10 logarithm.

COc1c(C)cc2c(c1O)[C@@H]1C3Cc4c(OC(C)=O)c(C)c5c(c4[C@H](COC(=O)/C=C/c4ccccc4)N3[C@@H](O)[C@H](C2)N1C)OCO5 (some centres unmarked) [drawing 238]	8.20

Lab note: next molecule to report on.
Form: molecule = COc1c(C)cc2c(c1O)[C@@H]1C3Cc4c(OC(C)=O)c(C)c5c(c4[C@H](COC(=O)/C=C/c4ccccc4)N3[C@@H](O)[C@H](C2)N1C)OCO5 (some centres unmarked) [drawing 239] ; pIC50 = 10.28

---

Below, each entry is listed alongside its reported IC50.
Test system: RAMOS
CONDITION_DETAILS: human
Answer with a number only, understood to be in nM.

Form: compound = COc1c(C)cc2c(c1O)[C@@H]1C3Cc4c(OC(C)=O)c(C)c5c(c4[C@H](COC(=O)/C=C/c4ccccc4)N3[C@@H](O)[C@H](C2)N1C)OCO5 (some centres unmarked) [drawing 239] ; IC50 = 1.86

Form: compound = COc1c(C)cc2c(c1O)[C@@H]1C3Cc4c(OC(C)=O)c(C)c5c(c4[C@H](COC(=O)/C=C/c4ccccc4)N3[C@@H](O)[C@H](C2)N1C)OCO5 (some centres unmarked) [drawing 238] ; IC50 = 0.715

---

Test system: DU-145
Below, each entry is listed alongside its reported pIC50.
In plain terms, pIC50 is the concentration in mol/L turned into minus its base-10 logarithm.

COc1c(C)cc2c(c1O)[C@@H]1C3Cc4c(OC(C)=O)c(C)c5c(c4[C@H](CNC(=O)CCc4ccccc4)N3[C@@H](O)[C@H](C2)N1C)OCO5 (stereo partly drawn) [drawing 123]	10.00
COc1c(C)cc2c(c1O)[C@@H]1C3Cc4c(OC(C)=O)c(C)c5c(c4[C@H](CNC(=O)[C@H](C)NC(=O)Cc4ccccc4)N3[C@@H](C#N)[C@H](C2)N1C)OCO5 (stereo partly drawn)	10.00

Lab note: next compound to report on.
C=CCOC(=O)Oc1c(C)c2c(c3c1CC1[C@H]4c5c(cc(C)c(OC)c5O)C[C@@H]([C@H](O)N1[C@H]3CNC(=O)/C=C/c1ccccc1)N4C)OCO2 (stereo partly drawn) on DU-145 gives pIC50 = 10.00
